# Test system: TXK
# setup_conditions: Compound Concentration (nM):1000;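 further: KINOMEscan scanMAX binding as percent activity remaining versus control; lower means stronger binding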
Quick reference for Percent Control among some molecules
The response must be a number in % with no trailing unit.

Here's what some known entries look like.
INSERT INTO results (molecule, target_system, metric_name, endpoint_value) VALUES
  ('C[C@@H](Oc1cc(-n2cnc3ccc(OC4CCN(C)CC4)cc32)sc1C(N)=O)c1ccccc1Cl [GSK579289A]', 'TXK', 'Percent Control', 60),
  ('Cl.O=C(O[C@H]1CN[C@H](C#Cc2cc3ncnc(Nc4ccc5c(cnn5Cc5ccccc5)c4)c3s2)C1)N1CCOCC1 [GSK200398A]', 'TXK', 'Percent Control', 83),
  ('COc1cccc(-c2c[nH]c3c(N/N=C/c4ccncc4)ncnc23)c1 [GW814408X]', 'TXK', 'Percent Control', 100);

Alright, here's another molecule for you.
Problem: Which Percent Control is listed for NS(=O)(=O)c1ccc(N/N=C2\C(=O)Nc3ccc(C(=O)NCCc4c[nH]cn4)cc32)cc1 [GW300660X] ?
Result: 100

====

# Tested on: BRSK1
# setup_conditions: Compound Concentration (nM):1000
Listed here are compounds together with their documented Percent Control.
Please reply with the bare figure in % and do not write the unit itself.

A selection of reference data follows.
INSERT INTO measurements (compound, endpoint_value) VALUES
  ('Nc1ncnc2occ(-c3ccc(NC(=O)Nc4cc(C(F)(F)F)ccc4F)cc3)c12 [GW770249X]', 100),
  ('CN1CCN(C(=O)c2ccc(NC(=O)Nc3ccc(N(C)c4ccnc(Nc5ccc(CS(C)(=O)=O)cc5)n4)cc3)cc2)CC1.Cl [GW830263A]', 100),
  ('COc1cccc(-n2ncc3c(N/N=C/c4ccncc4)ncnc32)c1 [GW784752X]', 18),
  ('Cc1cc(O)cc(C)c1/C=C/c1cncc(C(N)=O)c1 [GW435821X]', 94),
  ('C[C@@H](Oc1cc(-n2cnc3ccc(OC4CCN(C)CC4)cc32)sc1C(N)=O)c1ccccc1Cl [GSK579289A]', 64),
  ('C/C(Nc1ccc(S(N)(=O)=O)cc1)=C1/C(=O)Nc2ccccc21 [GW335962X]', 91);

Problem: Fill in the recorded Percent Control for this compound, with BRSK1 as test system: COc1cccc(-c2c[nH]c3c(N/N=C/c4ccncc4)ncnc23)c1 [GW814408X]
Result: 100

Problem: Lookup COc1ccc(COc2ccc(Cc3cnc(N)nc3N)cc2OC)cc1 [GW632580X]
Result: 100

Problem: What do you have for CC1=C(C(=O)Nc2ccc3[nH]ncc3c2)C(c2ccc3ccccc3c2)CC(=O)N1 (stereo not shown) [GSK270822A] ?
Result: 100

Problem: Same question, NS(=O)(=O)c1ccc(N/N=C2\C(=O)Nc3ccc(-c4cnco4)cc32)cc1 this time
Result: 100

Problem: Same read-out for O=C(Nc1n[nH]c2nc(-c3ccc(O)cc3)c(Br)cc12)C1CC1 ?
Result: 46

Problem: Next entry: COc1cc(C)c(N(C)C(=O)CN(C)C)cc1Nc1nc(Nc2cccc(F)c2C(N)=O)c2cc[nH]c2n1
Result: 100

Problem: Okay, and NS(=O)(=O)c1ccc(N/N=C2\C(=O)Nc3ccc(Cl)cc32)cc1 [GW280670X] ?
Result: 100
